test_target: APOL1 G2 (Homo sapiens, UniProt O14791, DEL388-389)
Construct: expressed in transfected cells; host or cells: HEK293 T-REx clonal line stably expressing GCaMP6f (HEK T-REx/GCaMP6f/APOL1 G2 K6.3), doxycycline induced
Sequence (O14791 with tags, fused parts or gaps DEL388-389): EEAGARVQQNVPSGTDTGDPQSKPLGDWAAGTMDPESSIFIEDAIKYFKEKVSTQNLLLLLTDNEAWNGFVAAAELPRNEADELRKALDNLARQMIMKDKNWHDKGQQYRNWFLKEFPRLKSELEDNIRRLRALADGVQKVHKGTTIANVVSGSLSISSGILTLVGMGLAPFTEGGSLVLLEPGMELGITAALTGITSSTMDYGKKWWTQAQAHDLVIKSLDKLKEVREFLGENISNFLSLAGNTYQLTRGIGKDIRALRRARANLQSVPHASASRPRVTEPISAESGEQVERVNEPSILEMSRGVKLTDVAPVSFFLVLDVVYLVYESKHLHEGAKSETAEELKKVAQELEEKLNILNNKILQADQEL
assay_overview: APOL1-mediated calcium transport (calcium influx) assay, HEK T-REx/GCaMP6f/APOL1 G2 K6.3 cells, FLIPR TETRA
Format: cell-based
conditions: prevention of calcium influx; geometric mean of at least 2 assay runs; † = average of a technical replicate from a single assay run
recorded_metric: AC50 (nM)
Please reply with the bare figure in nM and do not write the unit itself.

For the molecule CN=S(C)(=O)c1ccc(OCCN2CCC3(CC2)C(=O)Nc2ccc(Cl)cc23)cc1 (single isomer, unassigned) [Compound 149] , give its measured AC50 value.
971

For the molecule CC(COc1ccc2c(c1)CCC(=O)N2C)N1CCC2(CC1)C(=O)Nc1ccc(C#N)cc12 (centres unmarked) [Compound 202] , give its measured AC50 value.
1720

For the molecule CN1C(=O)Cc2cc(OCCN3CCC4(CC3)C(=O)N(C)c3ccccc34)ccc21 , give its measured AC50 value.
218

For the molecule CC(O)c1ncc(OCCN2CCC3(CC2)C(=O)Nc2ccc(C(F)F)cc23)cc1C(F)(F)F (single isomer, unassigned) [Compound 287] , give its measured AC50 value.
303

For the molecule C[C@]1(O)C[C@@H](N2C(=O)Cc3cc(OCCN4CCC5(CC4)C(=O)Nc4ccc(C(F)F)cc45)cnc32)C1 , give its measured AC50 value.
557

For the molecule CNC(=O)N1Cc2ccc(OCCN3CCC4(CC3)C(=O)Nc3ccc(Cl)cc34)cc2C1 , give its measured AC50 value.
686

For the molecule CS(=O)(=O)C1(c2ccc(OCCN3CCC4(CC3)C(=O)Nc3ccc(Cl)cc34)cc2)CCOCC1 , give its measured AC50 value.
513

For the molecule CN(C)C(=O)c1ccc(OCCN2CCC3(CC2)C(=O)Nc2ccc(Cl)cc23)cc1F , give its measured AC50 value.
891

For the molecule CC1(O)CC(CN2C(=O)CCc3cc(OCCN4CCC5(CC4)C(=O)Nc4ccc(C(F)F)cc45)cnc32)C1 (centres unmarked) , give its measured AC50 value.
787

For the molecule CS(=O)(=O)C1(c2ncc(OCCN3CCC4(CC3)C(=O)Nc3ccc(C#N)cc34)cc2F)CC1 , give its measured AC50 value.
2000

For the molecule Cc1nc2cc(OCCN3CCC4(CC3)C(=O)Nc3ccc(Cl)cc34)cnc2n1[C@H]1C[C@@](C)(O)C1 , give its measured AC50 value.
459

For the molecule CS(=O)(=O)c1ccc(OCCN2CCC3(CC2)C(=O)N([C@H]2C[C@@H](O)C2)c2ccccc23)cc1 , give its measured AC50 value.
481

For the molecule C[C@]1(O)C[C@@H](n2cnc3cc(OCCN4CCC5(CC4)C(=O)Nc4ccc(Cl)cc45)cc(OC(F)F)c32)C1 , give its measured AC50 value.
1130

For the molecule CN1C(=O)C2(CCN(CCOc3cc(F)c(C(=O)N4CCS(=O)(=O)CC4)c(F)c3)CC2)c2cc(C#N)ccc21 , give its measured AC50 value.
1380

For the molecule CN1CCc2cc(OCCN3CCC4(CC3)C(=O)Nc3ccc(C#N)cc34)ccc2S1(=O)=O , give its measured AC50 value.
869

For the molecule CC(CO)(c1ncc(OCCN2CCC3(CC2)C(=O)Nc2ccc(Cl)cc23)cc1C(F)(F)F)S(C)(=O)=O (centres unmarked) , give its measured AC50 value.
603

For the molecule NC(=O)c1ccc(OCCN2CCC3(CC2)C(=O)Nc2ccc(Cl)cc23)cc1C(F)F , give its measured AC50 value.
433

For the molecule N#Cc1ccc2c(c1)C1(CCN(CCOc3ccc4c(c3)CCN3C(=O)NCC43)CC1)C(=O)N2 (single isomer, unassigned) [Compound 119] , give its measured AC50 value.
1010

For the molecule CN1C(=O)C2(CCN(CCOc3ccc(S(=O)(=O)CCCS(C)(=O)=O)cc3)CC2)c2cc(Cl)ccc21 , give its measured AC50 value.
514

For the molecule O=C1Nc2ccc(Cl)cc2C12CCN(CCOc1cnc(C3(CO)CC3)nc1)CC2 , give its measured AC50 value.
486

For the molecule CS(=O)(=O)c1ccc(OCCN2CCC3(CC2)C(=O)Nc2ccc(C#N)cc23)cc1C(F)CF (centres unmarked) [Compound 220] , give its measured AC50 value.
679

For the molecule O=C1Nc2ccc(Cl)cc2C12CCN(CCOc1ccc(C3CCCS3(=O)=O)cc1)CC2 (centres unmarked) [Compound 175] , give its measured AC50 value.
381

For the molecule CC(C)(CO)c1ncc(OCCN2CCC3(CC2)C(=O)Nc2ccc(C#N)cc23)cn1 , give its measured AC50 value.
2560

For the molecule CC(=O)N1CCCc2cc(OCCN3CCC4(CC3)C(=O)Nc3ccc(C#N)cc34)ccc21 , give its measured AC50 value.
879

For the molecule [2H]C([2H])([2H])N1C(=O)C2(CCN(CCOc3cnc(C4(S(C)(=O)=O)CC4)nc3)CC2)c2cc(Cl)ccc21 , give its measured AC50 value.
895

For the molecule CC1(O)CN(c2ncc(OCCN3CCC4(CC3)C(=O)Nc3ccc(Cl)cc34)cn2)C1 , give its measured AC50 value.
674

For the molecule CS(=O)(=O)C1(c2ccc(OCCN3CCC4(CC3)C(=O)Nc3ccc(Cl)cc34)cc2C(F)(F)F)COC1 , give its measured AC50 value.
558

For the molecule CN=S(C)(=O)c1ccc(OCCN2CCC3(CC2)C(=O)Nc2ccc(C#N)cc23)cc1 (centres unmarked) [Compound 150] , give its measured AC50 value.
629
